The reported numbers originate from PubChem BioAssay (NCI).

- System: OVCAR-5 ovarian
- EXPERIMENT_NOTES: NCI tumour cell line growth inhibition, 48 h; in the data active = GI50 below about 0.43 µM; inactive = the rest
Can you answer with just one of these options? active, inactive

q: Could you please tell me the result logged for Nc1c2ccccc2nc2ccccc12 (tested in a mixture with another compound) in this assay?
a: inactive

q: Could you please tell me the result logged for "COC1=C(OC)[C@]2(OC)c3c(O)c(OC)c4c(c3O[C@@]23O[C@@H](c2ccccc2)CC=C3C1=O)[C@@H](O)C[C@H](c1ccccc1)O4" in this assay?
a: inactive

q: Could you please tell me the result logged for "C=C1C(=O)O[C@H]2[C@H]1CC/C(COC(=O)NCc1cc(OC)cc(OC)c1)=C\CC[C@@]1(C)O[C@@H]21" in this assay?
a: inactive

###

- Test system: UO-31 renal
- EXPERIMENT_NOTES: NCI tumour cell line growth inhibition, 48 h
Would you please tag the item T when its TGI is 10 µM or above, and F when it is below?

Worked examples, 5 compounds total:
[[record]]
compound = "Clc1ccc2c(NCCNc3nc(N4CCCC4)nc4ccccc34)ccnc2c1"
label_class = "F"

[[record]]
compound = "Nc1nc(-c2ccccc2)cc(-c2ccc(Cl)cc2)c1-c1nc2ccccc2o1"
label_class = "T"

[[record]]
compound = "O=C(Nc1ccc(Cl)cc1)NS(=O)(=O)c1c(-c2ccccc2)oc2ccccc2c1=O"
label_class = "T"

[[record]]
compound = "Cc1ccc(NC(=O)c2cc3ccccc3cc2O)c(C)c1.Cc1ccc(NC(=O)c2cc3ccccc3cc2[O-])c(C)c1.[Ni+2]"
label_class = "T"

[[record]]
compound = "O=S(=O)(CCCCl)SCCCCl"
label_class = "T"


q: Quick check, TGI >= 10 µM? O=C1NC2C(CCO)CC=C[C@H]2c2cc3c(cc21)OCO3 (stereo not given in full)
a: T

q: Quick check, TGI >= 10 µM? "Fc1c(F)c(C(F)(F)F)c(F)c(F)c1N/N=C/c1cn(Cc2ccccc2)c2ccccc12"
a: T

q: Quick check, TGI >= 10 µM? O=C(N/N=C(\c1nc2ccc(Cl)cc2[nH]c1=O)C(O)c1ccccc1Cl)c1ccncc1 (stereo not given)
a: T

q: Quick check, TGI >= 10 µM? CC12C(=O)OC(=O)C1(C)C1C=CC2O1 (stereo not given)
a: T

q: Quick check, TGI >= 10 µM? "COc1cc(N2CCC(N3CCN(C)CC3)CC2)ccc1Nc1ncc(Cl)c(Nc2ccccc2S(=O)(=O)C(C)C)n1"
a: F

###

- Test system: ACHN renal
- EXPERIMENT_NOTES: NCI tumour cell line growth inhibition, 48 h
RESULT_TYPE: GI50

Worked cases, answers included:
[[record]]
compound_smiles = "Oc1c(CN2CCN(c3ccccc3F)CC2)cc(Br)c2cccnc12"
result = "0.495 µM"

[[record]]
compound_smiles = "Cc1cc2nc(C(Cl)Cl)nc(-c3ccccc3)n2n1"
result = "1.87 µM"

[[record]]
compound_smiles = "COc1cc(C)c(NC(=O)CN(C)C)cc1Nc1nc(Nc2cccc(F)c2C(N)=O)c2cc[nH]c2n1"
result = "3.81 µM"


Each compound below has a recorded value; state its GI50.
1. C[CH2][Sn]([CH2]C)([O]C(=O)c1ccc(F)cc1)[O][Sn]([CH2]C)([CH2]C)[O]C(=O)c1ccc(F)cc1
2. COc1cc(N2CCC(N3CCN(C)CC3)CC2)ccc1Nc1ncc(Cl)c(Nc2ccccc2S(=O)(=O)C(C)C)n1
3. O=S(=O)(Nc1ccccn1)c1ccc(N=Nc2ccc(O)c3ncccc23)cc1
4. CN1CCN(CC(=O)N2c3cccc4cccc(c34)N(C(=O)CN3CCN(C)CC3)C2c2cn(-c3ccccc3)nc2-c2cccc([N+](=O)[O-])c2)CC1

a:
79.8 µM
0.76 µM
0.976 µM
2.22 µM

Each compound below has a recorded value; state its GI50.
1. O=[N+]([O-])c1cc2c(c([N+](=O)[O-])c1)Nc1ccccc1O2
2. COc1ccc2nc(-c3cc4c([nH]c5ccccc54)c(-c4ccc(F)c(F)c4)n3)[nH]c2c1

a:
["6.97 µM", "3.2 µM"]
